Attribution: ChEMBL document CHEMBL1201862

// reported EC50 per item
- Experimental target: Protein RecA (Mycobacterium tuberculosis)
- Procedure details: Fluorescence Cell-Free Homogeneous Dose Retest to Identify Inhibitors of RecA-Intein Splicing Activity. [Related pubchem assays (depositor defined):AID2097, AID2223, AID489010, AID492950]
- Format: functional
The source made the active and inactive calls. No stated cut-off is given here; in the data, actives have a measured EC50 and inactives only a lower limit.

>>> print(df.to_string())
                                   compound                       experimental_target  reported_metric     value_measured
0         O=S(=O)(CCSc1ccccn1)c1nc2ccccc2s1  Protein RecA (Mycobacterium tuberculosis)             EC50   9.21 µM (active)
1  Cc1ccc(N(NC(=O)C(O)(c2ccccc2)c2ccccc2)C(=O)CCl)cc1  Protein RecA (Mycobacterium tuberculosis)             EC50  0.529 µM (active)
2   c1ccc(-c2nnc(-c3ccccn3)nc2NC2CCCCC2)cc1  Protein RecA (Mycobacterium tuberculosis)             EC50   16.9 µM (active)

Entry Cc1n[nH]c2c1C(c1ccsc1)C(C#N)=C(N)O2 (stereo unspecified) : reported EC50 = ?
4.1 µM (active)

Same question, CC(=O)C(=NNc1cccc(Cl)c1)Nc1ccc(Cl)cc1Cl this time
49 µM (active)

Same question, O=C(CSc1ncnc2c1nnn2-c1ccc(F)cc1)NCC1CCCO1 (stereo unspecified) this time
3.67 µM (active)
